measured-target: URAT1 (Homo sapiens)
Sequence (Q96S37 whole entry): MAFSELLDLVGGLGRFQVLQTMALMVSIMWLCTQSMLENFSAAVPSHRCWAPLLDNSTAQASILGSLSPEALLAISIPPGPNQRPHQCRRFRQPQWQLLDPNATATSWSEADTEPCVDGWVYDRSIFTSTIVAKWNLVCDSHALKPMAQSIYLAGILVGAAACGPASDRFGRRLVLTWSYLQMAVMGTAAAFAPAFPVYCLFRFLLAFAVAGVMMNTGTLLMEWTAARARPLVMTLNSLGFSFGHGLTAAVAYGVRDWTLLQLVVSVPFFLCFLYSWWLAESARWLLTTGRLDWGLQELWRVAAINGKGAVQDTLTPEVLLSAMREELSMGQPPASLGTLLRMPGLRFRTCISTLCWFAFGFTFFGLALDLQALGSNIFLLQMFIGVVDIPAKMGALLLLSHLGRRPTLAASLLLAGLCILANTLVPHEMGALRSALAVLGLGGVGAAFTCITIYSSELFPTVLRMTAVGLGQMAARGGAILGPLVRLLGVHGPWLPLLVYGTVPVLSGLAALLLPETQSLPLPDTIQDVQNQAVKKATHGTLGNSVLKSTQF
experiment-summary: URAT1-model assay (14C-uric acid transport in HEK293/URAT1-model cells)
reported-conditions: 125 μM 14C-uric acid, 10 minutes at room temperature, read-out: URAT-1 model cell-based C14 EC50 Ranking
readout-name: EC50

EC50 for N#Cc1ccc(-c2cc(F)ccc2SC2(C(=O)O)CCC2)cc1 [Example 1G] ?
1 to 50 nM

EC50 for O=C(O)C1(Sc2ccc(F)cc2-c2ccc(C3CC3)cc2)CCC1 [Example 1F] ?
500 to 10000 nM

EC50 for CC(C)(Sc1ccccc1-c1ccc(CO)cc1)C(=O)O [Example 1C] ?
50 to 500 nM

EC50 for O=C(O)C1(Sc2ccccc2-c2ccc(CO)cc2)CCC1 [Example 1E] ?
50 to 500 nM

EC50 for N#Cc1ccc(-c2ccccc2SC2(C(=O)O)CCC2)cc1 [Example 1D] ?
1 to 50 nM

EC50 for CC(C)(Sc1ccccc1-c1ccc(C(N)=O)cc1)C(=O)O [Example 1B] ?
500 to 10000 nM
